- System: EKVX
- Protocol: NCI tumour cell line growth inhibition, 48 h
Activity calls are given as the source filed them. Cut-off read from the data, not from the text of the source: active = GI50 up to about 1.1 µM and inactive = higher.
Outcomes: y (active), n (inactive)

>>> class_label("O=c1[nH]nc(Cc2ccccc2)n1C1CCCC1")
"n"
>>> class_label("CNC(=O)C1CCc2nnc(-c3ccccc3)n21 (stereo not drawn)")
"n"
>>> class_label("Cc1cc(S(=O)(=O)Nc2nc(Nc3ccccc3)n[nH]2)c(SCC(=O)O)cc1Cl")
"n"
>>> class_label("CSc1nc(C)c(CCOC(C)=O)c(N=P(c2ccccc2)(c2ccccc2)c2ccccc2)n1")
"n"
>>> class_label("Cc1ccc2c(c1)C(=O)c1nc(C)ccc1C2=O")
"n"
>>> class_label("OC[C@H]1O[C@@H]2O[C@@](COCc3ccccc3)([C@H](OCc3ccccc3)[C@H]2O)[C@@H]1OCc1ccccc1")
"n"
>>> class_label("CN(C)CCNC(=O)c1ccc(NCCCN(C)CCCNc2ccc(C(=O)NCCN(C)C)c3nc4ccccc4c(O)c23)c2c(O)c3ccccc3nc12")
"y"
>>> class_label("Cc1csc2c1C(=O)c1ccsc1C2=O")
"n"
